Assay: melting temperature; fluorescence melt of hairpins on a sequencing array, two-state fit, raised by 9.35 °C to match UV melts
Details: sodium 0.088 M
Label Condition not met if Tm falls below 50 °C; label Condition met in every other case.

residue.sequence: GACGTAGCGAAAGCTGTC (((..(((....))))))
label: Condition not met
//
residue.sequence: ATCAGTGAAAAATCACTGAA ....................
label: Condition not met
//
residue.sequence: GATGTGGGAAACCGCATC ((((.((....)).))))
label: Condition met
//
residue.sequence: GCGCAGCGAAAGCAGAGC ((.(.((....)).).))
label: Condition met
//
residue.sequence: GGGGGGGGAAACCCCCTC (.(((((....))))).)
label: Condition met
//
residue.sequence: GCGACAGTCGC ((((...))))
label: Condition not met
//
residue.sequence: GCACTGCGAAAGCGGGGC ((.(.((....)).).))
label: Condition met
//
residue.sequence: GACCACGGAAACGTAGTC (((.(((....))).)))
label: Condition not met
//
residue.sequence: GCGTGCGGAAACGTGCGC (((..((....))..)))
label: Condition met
//
residue.sequence: GTCTGACGAAAGTCGGAC (((.(((....))).)))
label: Condition met
//
residue.sequence: GGGGGAGGAAACTTCCCC ((((.((....)).))))
label: Condition met
//
residue.sequence: GGGCACGGAAACGCGCCC ((((.((....)).))))
label: Condition met
//
residue.sequence: GTACTCGGAAACAAGTAC (((((.(....).)))))
label: Condition not met
//
residue.sequence: GTTTAGCGAAAGCTCAAC (((.(((....))).)))
label: Condition not met

* * *

Assay: melting temperature; fluorescence melt of hairpins on a sequencing array, two-state fit, raised by 9.35 °C to match UV melts
Details: sodium 0.088 M
Label condition not met if Tm falls below 50 °C; label condition met in every other case.

residue.sequence: GATCTACGTCTAGATC ((((((....))))))
label: condition not met
//
residue.sequence: GAGACAGGAAACCGTCTC (((((.(....).)))))
label: condition not met
//
residue.sequence: GAGAGTGGAAACGTTCTC ((((..(....)..))))
label: condition not met
//
residue.sequence: GCGGCAGGAAACTGCTGC ((.((((....)))).))
label: condition met
//
residue.sequence: GCGAGAGTTCGC ((((....))))
label: condition not met
//
residue.sequence: GAAAAGGGAAACCTTTCC (.(((((....))))).)
label: condition not met
//
residue.sequence: TTGGAGAAATCCAA (((((....)))))
label: condition not met
//
residue.sequence: GCACACGAAAGTGGCTGC ((((((....)))..)))
label: condition met
//
residue.sequence: GGTTACGAAAGTAACACC ((((((....)))..)))
label: condition not met
//
residue.sequence: GGGAAAGGAAACTTTCCC (((((((....)))))))
label: condition met
//
residue.sequence: GCGGGGCGAAAGCCAGGC ((..(((....)))..))
label: condition met
//
residue.sequence: GTAGCCCGAAAGGGTTAC (((.(((....))).)))
label: condition met
//
residue.sequence: GCCGCGCGAAAGCCCCGC ((.(.((....)).).))
label: condition not met
//
residue.sequence: GCCAACGGAAACATTGGC (((((.(....).)))))
label: condition not met
//
residue.sequence: GATCGTTCACACGATC ((((((....))))))
label: condition met
//
residue.sequence: GCGGCCACCGC ((((...))))
label: condition met
//
residue.sequence: GCCTTGCGAAAGCAAAGC ((.((((....)))).))
label: condition met
//
residue.sequence: GATTTTGGAAACAAAATC (((((((....)))))))
label: condition met
//
residue.sequence: CGTCAACGGAAACGTACG (((..(((....))))))
label: condition not met
//
residue.sequence: GAACCCGAAAGGGTCTTC ((((((....)))..)))
label: condition met
//
residue.sequence: GGACCCACGAAAGTGTCC (((..(((....))))))
label: condition not met
//
residue.sequence: GGGCTCCGAAAGGAACCC (((.(((....))).)))
label: condition met
//
residue.sequence: GCTATTCGAAAGAACAGC (((.(((....))).)))
label: condition not met
//
residue.sequence: GTTCAGCGAAAGCTCAAC (((.(((....))).)))
label: condition not met
//
residue.sequence: GCTATTGGAAACGATAGC (((((.(....).)))))
label: condition not met
//
residue.sequence: GATGATGGAAACGTCATC (((((.(....).)))))
label: condition not met
//
residue.sequence: GATCCTATTAAGGATC ((((((....))))))
label: condition met
//
residue.sequence: GGCGCCGAAAGGCATGCC ((((((....)))..)))
label: condition met
//
residue.sequence: GGCCCAGGAAACTAGGCC ((((.((....)).))))
label: condition not met
//
residue.sequence: GATCGAGATCTCGATC ((((((....))))))
label: condition met
//
residue.sequence: GATCGGGCCACCGATC ((((((....))))))
label: condition met
//
residue.sequence: GCCGGATCGAAAGATGGC (((..(((....))))))
label: condition not met
//
residue.sequence: GGACTCGAAAGAGCGTCC ((((((....)))..)))
label: condition not met
//
residue.sequence: GATCACGAAAGTGCATC ((((((....))).)))
label: condition not met
